# Procedure summary: In vitro transfection of cells with eGFP-mRNA lipid nanoparticle (LNP preparation), fluorescence imaging and flow cytometry
# Type: cell-based, mouse
# Condition info: mouse, dc2.4 cells, 200 ng of mRNA per well, after 24 hours; read-out: Cell viability, %
Overview of reported viability at 24 h across a group of compounds:

CCCCCCCCCCCOC(=O)CCCCCN(CCCCO)CCCN(CCCCCC(=O)OCCCCCCCCCCC)CCCCCC(=O)OCCCCCCCCCCC 92.9%
CCCCCCCCCCCCCOC(=O)CCCN(CCCO)CCCCCN(CCCC(=O)OCCCCCCCCCCCCC)CCCC(=O)OCCCCCCCCCCCCC 99%

As a next step, examine the compound that follows.
Give the value of viability at 24 h reported for the following: "CCCCCCCCCCCOC(=O)CCN(CCO)CCCN(CCC(=O)OCCCCCCCCCCC)CCC(=O)OCCCCCCCCCCC"
95.8%

###

# Procedure summary: Size and polydispersity index (PDI) of the lipid nanoparticle by dynamic light scattering
# Format: physicochemical
# Condition info: LNP encapsulating eGFP mRNA, ionizable lipid/DOPE/cholesterol/DMG-PEG2000 50/10/48.25/1.25 mol%, N/P 12
Experimental readout: PDI
Respond numerically, and do not add a unit to the figure.

Here's what some known entries look like.
Molecule	PDI
CCCCCCCCCCCOC(=O)CCCCCCCCCN(CCO)CCCN(CCCCCCCCCC(=O)OCCCCCCCCCCC)CCCCCCCCCC(=O)OCCCCCCCCCCC [Example 91]	0.24
CCCCCCCCCCCOC(=O)CCCCN(CCCO)CCCN(CCCCC(=O)OCCCCCCCCCCC)CCCCC(=O)OCCCCCCCCCCC	0.11

As a next step, examine the molecule that follows.
Give the value of PDI reported for the following: "CCCCC/C=C\C/C=C\CCCCCCCCOC(=O)CCCCCCN(CCCO)CCCN(CCCCCCC(=O)OCCCCCCCC/C=C\C/C=C\CCCCC)CCCCCCC(=O)OCCCCCCCC/C=C\C/C=C\CCCCC"
0.16

###

# Procedure summary: Size and polydispersity index (PDI) of the lipid nanoparticle by dynamic light scattering
# Assay type: physicochemical
# Condition info: LNP encapsulating eGFP mRNA, ionizable lipid/DOPE/cholesterol/DMG-PEG2000 50/10/48.25/1.25 mol%, N/P 12
Experimental readout: PDI
Respond numerically, and do not add a unit to the figure.

Give the value of PDI reported for the following: CCCCCCCCCCCCOC(=O)CCCCCCCN(CCCO)CCCN(CCCCCCCC(=O)OCCCCCCCCCCCC)CCCCCCCC(=O)OCCCCCCCCCCCC [Example 51]
0.18

Give the value of PDI reported for the following: CCCCCCCCCCCCCOC(=O)CCCN(CCCCO)CCCN(CCCC(=O)OCCCCCCCCCCCCC)CCCC(=O)OCCCCCCCCCCCCC [Example 65]
0.20

Give the value of PDI reported for the following: CCCCCCCCCCCCOC(=O)CCCN(CCCO)CCCCN(CCCC(=O)OCCCCCCCCCCCC)CCCC(=O)OCCCCCCCCCCCC [Example 84]
0.11

Give the value of PDI reported for the following: CCCCCCCCCCCCCCOC(=O)CCCCCCCN(CCO)CCCN(CCCCCCCC(=O)OCCCCCCCCCCCCCC)CCCCCCCC(=O)OCCCCCCCCCCCCCC [Example 59]
0.08

###

Overview of reported PDI across a group of compounds:
# Procedure summary: Size and polydispersity index (PDI) of the lipid nanoparticle by dynamic light scattering
# Assay type: physicochemical
# Condition info: LNP encapsulating eGFP mRNA, ionizable lipid/DOPE/cholesterol/DMG-PEG2000 50/10/48.25/1.25 mol%, N/P 12
# Method: The ionizable lipid compound and positive control 1 from Example I were dissolved in ethanol at a molar ratio of 50:10:48.25:1.25 with DOPE, cholesterol, and DMG-PEG2000 (all purchased from A.V.T (Shanghai) Pharmaceutical Co., Ltd.) to prepare an ethanol lipid solution. The enhanced green fluorescent protein (eGFP) mRNA was diluted in 20 mM citrate buffer (pH=6.1) to obtain an mRNA aqueous solution. […]
Respond numerically, and do not add a unit to the figure.

Here's what some known entries look like.
Compound	PDI
CCCCCCCCCCCCOC(=O)CCCCCCCN(CCO)CCCN(CCCCCCCC(=O)OCCCCCCCCCCCC)CCCCCCCC(=O)OCCCCCCCCCCCC	0.20
CCCCCCCCCCCOC(=O)CCCCN(CCO)CCCN(CCCCC(=O)OCCCCCCCCCCC)CCCCC(=O)OCCCCCCCCCCC [Example 107]	0.13
CCCCCOC(=O)CCCCCCCN(CCO)CCCN(CCCCCCCC(=O)OCCCCC)CCCCCCCC(=O)OCCCCC	0.16
CCCCCCCCCCCCCCOC(=O)CCCCCCN(CCO)CCCN(CCCCCCC(=O)OCCCCCCCCCCCCCC)CCCCCCC(=O)OCCCCCCCCCCCCCC	0.14
CCCCCC/C=C\COC(=O)CCCCCCCN(CCO)CCCN(CCCCCCCC(=O)OC/C=C\CCCCCC)CCCCCCCC(=O)OC/C=C\CCCCCC	0.13

As a next step, examine the compound that follows.
Give the value of PDI reported for the following: "CCCCCCCCCCCOC(=O)CCCN(CCO)CCCN(CCCC(=O)OCCCCCCCCCCC)C(=O)CCC(=O)OCCCCCCCCCCC"
0.33

###

# Procedure summary: Size and polydispersity index (PDI) of the lipid nanoparticle by dynamic light scattering
# Format: physicochemical
# Condition info: LNP encapsulating eGFP mRNA, ionizable lipid/DOPE/cholesterol/DMG-PEG2000 50/10/48.25/1.25 mol%, N/P 12
Overview of reported PDI across a group of compounds:

CCCCCCCCCCCOC(=O)CCCCCCN(CCCCO)CCCN(CCCCCCC(=O)OCCCCCCCCCCC)CCCCCCC(=O)OCCCCCCCCCCC 0.15

Give the value of PDI reported for the following: "CCCCCCCCCCOC(=O)CCCN(CCCO)CCCCN(CCCC(=O)OCCCCCCCCCC)CCCC(=O)OCCCCCCCCCC"
0.13

Give the value of PDI reported for the following: "CCCCCCCCCCCCCCOC(=O)CCCCCCCN(CCCO)CCCN(CCCCCCCC(=O)OCCCCCCCCCCCCCC)CCCCCCCC(=O)OCCCCCCCCCCCCCC"
0.10

###

# Procedure summary: Size and polydispersity index (PDI) of the lipid nanoparticle by dynamic light scattering
# Assay type: physicochemical
# Condition info: LNP encapsulating eGFP mRNA, ionizable lipid/DOPE/cholesterol/DMG-PEG2000 50/10/48.25/1.25 mol%, N/P 12
Overview of reported PDI across a group of compounds:
Respond numerically, and do not add a unit to the figure.

Give the value of PDI reported for the following: "CCCCCCCCCCCCCCOC(=O)CCCCCCCN(CCCCO)CCCN(CCCCCCCC(=O)OCCCCCCCCCCCCCC)CCCCCCCC(=O)OCCCCCCCCCCCCCC"
0.13

Give the value of PDI reported for the following: CCCCC/C=C\C/C=C\CCCCCCCCOC(=O)CCCCCCCN(CCO)CCCN(CCCCCCCC(=O)OCCCCCCCC/C=C\C/C=C\CCCCC)CCCCCCCC(=O)OCCCCCCCC/C=C\C/C=C\CCCCC [Example 24]
0.15

Give the value of PDI reported for the following: "CCCCCCCCCCCOC(=O)CCCCCN(CCCO)CCCN(CCCCCC(=O)OCCCCCCCCCCC)CCCCCC(=O)OCCCCCCCCCCC"
0.12

Give the value of PDI reported for the following: "CCCCCCCCCCCCCOC(=O)CCN(CCCO)CCCN(CCC(=O)OCCCCCCCCCCCCC)CCC(=O)OCCCCCCCCCCCCC"
85.88

Give the value of PDI reported for the following: CCCCCCCCCCCCCOC(=O)CCCCCCCN(CCO)CCCN(CCCCCCCC(=O)OCCCCCCCCCCCCC)CCCCCCCC(=O)OCCCCCCCCCCCCC [Example 13]
0.21

Give the value of PDI reported for the following: CCCCCCCCCCCOC(=O)CCCCCCCCCN(CCO)CCCN(CCCCCCCCCC(=O)OCCCCCCCCCCC)CCCCCCCCCC(=O)OCCCCCCCCCCC [Example 14]
0.21

###

# Procedure summary: In vitro transfection of cells with eGFP-mRNA lipid nanoparticle (LNP preparation), fluorescence imaging and flow cytometry
# Format: cell-based, mouse
# Condition info: mouse, dc2.4 cells, 200 ng of mRNA per well, after 24 hours; read-out: Cell viability, %
# Procedure: This example used mouse bone marrow-derived dendritic cells DC2.4 (purchased from Millipore) as the validation cell line for a lipid nanoparticle transfection experiment. DC2.4 cells adhered to the wall for growth. […] The culture bottle was incubated in a 5% CO2 incubator at 37 °C, and the recovery time was recorded. • 2) Cell passaging: Under a microscope, if the cell density in the field of view reached 80%-90%, cells could be passaged and cultured. […]
Note to self: viability at 24 h under 90% means criterion met, ties and anything higher get criterion not met.

Consider the worked cases shown below.
CCCCCCCCCCCCOC(=O)CCCCCCN(CCCO)CCCN(CCCCCCC(=O)OCCCCCCCCCCCC)CCCCCCC(=O)OCCCCCCCCCCCC criterion not met
CCC/C=C\COC(=O)CCCCCCCN(CCO)CCCN(CCCCCCCC(=O)OC/C=C\CCC)CCCCCCCC(=O)OC/C=C\CCC criterion met
CCCCCC/C=C\COC(=O)CCCCCCCN(CCCO)CCCN(CCCCCCCC(=O)OC/C=C\CCCCCC)CCCCCCCC(=O)OC/C=C\CCCCCC criterion not met
CCCCCCCCCCCCCOC(=O)CCN(CCCCO)CCCN(CCC(=O)OCCCCCCCCCCCCC)CCC(=O)OCCCCCCCCCCCCC criterion met
CC(C)=CCC/C(C)=C/COC(=O)CCCCCCCN(CCO)CCCN(CCCCCCCC(=O)OC/C=C(\C)CCC=C(C)C)CCCCCCCC(=O)OC/C=C(\C)CCC=C(C)C criterion met
CCCCCCCCCCCCCCOC(=O)CCCCCN(CCO)CCCN(CCCCCC(=O)OCCCCCCCCCCCCCC)CCCCCC(=O)OCCCCCCCCCCCCCC criterion met

Please let me know if "CCCCCCCCCCCOC(=O)CCCCN(CCCO)CCCN(CCCCC(=O)OCCCCCCCCCCC)CCCCC(=O)OCCCCCCCCCCC" shows viability at 24 h below 90%.
criterion not met

Please let me know if "CCCCCCCCCCCCCCOC(=O)CCCCCCCN(CCCO)CCCN(CCCCCCCC(=O)OCCCCCCCCCCCCCC)CCCCCCCC(=O)OCCCCCCCCCCCCCC" shows viability at 24 h below 90%.
criterion met

Please let me know if "CCCCCCCCCCCCCCOC(=O)CCCCCN(CCCCO)CCCN(CCCCCC(=O)OCCCCCCCCCCCCCC)CCCCCC(=O)OCCCCCCCCCCCCCC" shows viability at 24 h below 90%.
criterion met
